Reference for the values: paper PMC12920294

Measured tissue uptake at 4 h accompanies every entry in the list below.
Assay: in vivo
Settings: CD1 nude, mouse, 0.5 nmol/mouse, total radioactivity, HEK-uPAR xenograft uptake
Return type: number; implicit unit %ID/g.

These solved cases illustrate the format of a correct answer.
[
  {
    "Molecule": "Cc1ccc(CCCC(=O)NCCCCCCCC(=O)NCCCC[C@H](NC(=O)CN2CCN(CC(=O)O)CCN(CC(=O)O)CCN(CC(=O)O)CC2)C(=O)N[C@@H](CC(=O)O)C(=O)N[C@@H](CC2CCCCC2)C(=O)N[C@@H](Cc2ccccc2)C(=O)N[C@H](CO)C(=O)N[C@H](CCCNC(=N)N)C(=O)N[C@@H](Cc2ccc(O)cc2)C(=O)N[C@@H](CC(C)C)C(=O)N[C@@H](Cc2c[nH]c3ccccc23)C(=O)N[C@@H](CO)C(N)=O)cc1 [[^177Lu]Lu-uPAR-12, metal not drawn]",
    "tissue uptake at 4 h, %ID/g": 6
  },
  {
    "Molecule": "Cc1ccc(CCCC(=O)NCCOCCOCCOCCOCCC(=O)NCCCC[C@H](NC(=O)CN2CCN(CC(=O)O)CCN(CC(=O)O)CCN(CC(=O)O)CC2)C(=O)N[C@@H](CC(=O)O)C(=O)N[C@@H](CC2CCCCC2)C(=O)N[C@@H](Cc2ccccc2)C(=O)N[C@H](CO)C(=O)N[C@H](CCCNC(=N)N)C(=O)N[C@@H](Cc2ccc(O)cc2)C(=O)N[C@@H](CC(C)C)C(=O)N[C@@H](Cc2c[nH]c3ccccc23)C(=O)N[C@@H](CO)C(N)=O)cc1 [[^177Lu]Lu-uPAR-11, metal not drawn]",
    "tissue uptake at 4 h, %ID/g": 16
  }
]

Next item in the queue.
What value of tissue uptake at 4 h has been reported for the following molecule? Cc1ccc(CCCC(=O)NCCOCCOCCOCCOCCC(=O)NCCCC[C@H](NC(=O)CC[C@H](C(=O)O)N2CCN(CC(=O)O)CCN(CC(=O)O)CCN(CC(=O)O)CC2)C(=O)N[C@@H](CC(=O)O)C(=O)N[C@@H](CC2CCCCC2)C(=O)N[C@@H](Cc2ccccc2)C(=O)N[C@H](CO)C(=O)N[C@H](CCCNC(=N)N)C(=O)N[C@@H](Cc2ccc(O)cc2)C(=O)N[C@@H](CC(C)C)C(=O)N[C@@H](Cc2c[nH]c3ccccc23)C(=O)N[C@@H](CO)C(N)=O)cc1 [[^177Lu]Lu-uPAR-17, metal not drawn]
8

* * *

Assay: in vivo
Conditions: CD1 nude, mouse, 0.5 nmol/mouse, total radioactivity, HEK-uPAR xenograft uptake
Measured tissue uptake at 24 h accompanies every entry in the list below.
Return type: number; implicit unit %ID/g.

[
  {
    "Compound": "Cc1ccc(CCCC(=O)NCCOCCOCCOCCOCCOCCC(=O)NCCCC[C@H](NC(=O)CN2CCN(CC(=O)O)CCN(CC(=O)O)CCN(CC(=O)O)CC2)C(=O)N[C@@H](CC(=O)O)C(=O)N[C@@H](CC2CCCCC2)C(=O)N[C@@H](Cc2ccccc2)C(=O)N[C@H](CO)C(=O)N[C@H](CCCNC(=N)N)C(=O)N[C@@H](Cc2ccc(O)cc2)C(=O)N[C@@H](CC(C)C)C(=O)N[C@@H](Cc2c[nH]c3ccccc23)C(=O)N[C@@H](CO)C(N)=O)cc1 [[^177Lu]Lu-uPAR-18, metal not drawn]",
    "tissue uptake at 24 h (%ID/g)": 7.3
  },
  {
    "Compound": "Cc1ccc(CCCC(=O)NCCCCCCCC(=O)NCCCC[C@H](NC(=O)CN2CCN(CC(=O)O)CCN(CC(=O)O)CCN(CC(=O)O)CC2)C(=O)N[C@@H](CC(=O)O)C(=O)N[C@@H](CC2CCCCC2)C(=O)N[C@@H](Cc2ccccc2)C(=O)N[C@H](CO)C(=O)N[C@H](CCCNC(=N)N)C(=O)N[C@@H](Cc2ccc(O)cc2)C(=O)N[C@@H](CC(C)C)C(=O)N[C@@H](Cc2c[nH]c3ccccc23)C(=O)N[C@@H](CO)C(N)=O)cc1 [[^177Lu]Lu-uPAR-12, metal not drawn]",
    "tissue uptake at 24 h (%ID/g)": 5.7
  }
]

What value of tissue uptake at 24 h has been reported for the following compound? Cc1ccc(CCCC(=O)NCCOCCOCCOCCOCCC(=O)NCCCC[C@H](NC(=O)CN2CCN(CC(=O)O)CCN(CC(=O)O)CCN(CC(=O)O)CC2)C(=O)N[C@@H](CC(=O)O)C(=O)N[C@@H](CC2CCCCC2)C(=O)N[C@@H](Cc2ccccc2)C(=O)N[C@H](CO)C(=O)N[C@H](CCCNC(=N)N)C(=O)N[C@@H](Cc2ccc(O)cc2)C(=O)N[C@@H](CC(C)C)C(=O)N[C@@H](Cc2c[nH]c3ccccc23)C(=O)N[C@@H](CO)C(N)=O)cc1 [[^177Lu]Lu-uPAR-11, metal not drawn]
7.9

What value of tissue uptake at 24 h has been reported for the following compound? Cc1ccc(CCCC(=O)NCCOCCOCCOCCOCCC(=O)NC[C@H](NC(=O)CN2CCN(CC(=O)O)CCN(CC(=O)O)CCN(CC(=O)O)CC2)C(=O)N[C@@H](CC(=O)O)C(=O)N[C@@H](CC2CCCCC2)C(=O)N[C@@H](Cc2ccccc2)C(=O)N[C@H](CO)C(=O)N[C@H](CCCNC(=N)N)C(=O)N[C@@H](Cc2ccc(O)cc2)C(=O)N[C@@H](CC(C)C)C(=O)N[C@@H](Cc2c[nH]c3ccccc23)C(=O)N[C@@H](CO)C(N)=O)cc1 [[^177Lu]Lu-uPAR-14, metal not drawn]
3.4

* * *

Assay: in vivo
Conditions: CD1 nude, mouse, 0.5 nmol/mouse, total radioactivity, Bone uptake
Endpoint: tissue uptake at 24 h (%ID/g)
Return type: number; implicit unit %ID/g.

These solved cases illustrate the format of a correct answer.
[
  {
    "Compound": "Cc1ccc(CCCC(=O)NCCOCCOCCOCCC(=O)NCCCC[C@H](NC(=O)CN2CCN(CC(=O)O)CCN(CC(=O)O)CCN(CC(=O)O)CC2)C(=O)N[C@@H](CC(=O)O)C(=O)N[C@@H](CC2CCCCC2)C(=O)N[C@@H](Cc2ccccc2)C(=O)N[C@H](CO)C(=O)N[C@H](CCCNC(=N)N)C(=O)N[C@@H](Cc2ccc(O)cc2)C(=O)N[C@@H](CC(C)C)C(=O)N[C@@H](Cc2c[nH]c3ccccc23)C(=O)N[C@@H](CO)C(N)=O)cc1 [[^177Lu]Lu-uPAR-15, metal not drawn]",
    "Readout unit": "%ID/g",
    "Result value": 0.12
  },
  {
    "Compound": "Cc1ccc(CCCC(=O)NCCOCCOCCOCCOCCC(=O)NCCCC[C@H](NC(=O)CN2CCN(CC(=O)O)CCN(CC(=O)O)CCN(CC(=O)O)CC2)C(=O)N[C@@H](CC(=O)O)C(=O)N[C@@H](CC2CCCCC2)C(=O)N[C@@H](Cc2ccccc2)C(=O)N[C@H](CO)C(=O)N[C@H](CCCNC(=N)N)C(=O)N[C@@H](Cc2ccc(O)cc2)C(=O)N[C@@H](CC(C)C)C(=O)N[C@@H](Cc2c[nH]c3ccccc23)C(=O)N[C@@H](CO)C(N)=O)cc1 [[^177Lu]Lu-uPAR-11, metal not drawn]",
    "Readout unit": "%ID/g",
    "Result value": 0.19
  },
  {
    "Compound": "Cc1ccc(CCCC(=O)NCCCCCCCC(=O)NCCCC[C@H](NC(=O)CN2CCN(CC(=O)O)CCN(CC(=O)O)CCN(CC(=O)O)CC2)C(=O)N[C@@H](CC(=O)O)C(=O)N[C@@H](CC2CCCCC2)C(=O)N[C@@H](Cc2ccccc2)C(=O)N[C@H](CO)C(=O)N[C@H](CCCNC(=N)N)C(=O)N[C@@H](Cc2ccc(O)cc2)C(=O)N[C@@H](CC(C)C)C(=O)N[C@@H](Cc2c[nH]c3ccccc23)C(=O)N[C@@H](CO)C(N)=O)cc1 [[^177Lu]Lu-uPAR-12, metal not drawn]",
    "Readout unit": "%ID/g",
    "Result value": 0.78
  }
]

Next item in the queue.
What value of tissue uptake at 24 h has been reported for the following compound? Cc1ccc(CCCC(=O)NCCOCCOCCOCCOCCC(=O)NCCCC[C@H](NC(=O)CC[C@H](C(=O)O)N2CCN(CC(=O)O)CCN(CC(=O)O)CCN(CC(=O)O)CC2)C(=O)N[C@@H](CC(=O)O)C(=O)N[C@@H](CC2CCCCC2)C(=O)N[C@@H](Cc2ccccc2)C(=O)N[C@H](CO)C(=O)N[C@H](CCCNC(=N)N)C(=O)N[C@@H](Cc2ccc(O)cc2)C(=O)N[C@@H](CC(C)C)C(=O)N[C@@H](Cc2c[nH]c3ccccc23)C(=O)N[C@@H](CO)C(N)=O)cc1 [[^177Lu]Lu-uPAR-17, metal not drawn]
0.06
